Assay: chemical genetic growth profiling, strain panel (AID 1159580);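 further: tested at 20 µM; growth read once vehicle control cultures reached saturation at 30 °C; 1 = growth at the plate median or of vehicle wells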
Settings: S. cerevisiae deletion strains, growth OD, locus YJL154C, strain vps35
In all, about 5,500 compounds went through this assay and about 2,000 (36%) were called active. About 18% were inconclusive and are not listed. No stated cut-off is given here; in the data, active means normalized growth mostly below about 0.91 (no sharp cut-off); inconclusive means no clear call, values can overlap the other calls; inactive means mostly above about 0.92. The list shows a part of the results.
Parameter call: string, one of active, inactive

Could you kindly confirm the outcome this assay logged for CC(=O)NCCCS(=O)(=O)O ? inactive

Could you kindly confirm the outcome this assay logged for CC1(C)C(=O)C=C[C@@]2(C)C1=C(O)C(=O)[C@]1(C)C2CC[C@@]2(C)[C@H](c3ccoc3)C[C@H]3O[C@]321 (stereo partly drawn) ? inactive

Could you kindly confirm the outcome this assay logged for Oc1ccc(Cl)c2cccnc12 ? active

Could you kindly confirm the outcome this assay logged for CC(=O)O[C@@H]1C[C@@]2(C)[C@H](c3ccoc3)C[C@H]3O[C@]32[C@]2(C)C(=O)C(O)=C3C(C)(C)C(=O)C=C[C@]3(C)C12 (stereo partly drawn) ? inactive

Could you kindly confirm the outcome this assay logged for CC(=O)NCCCCCC(=O)O ? inactive

Could you kindly confirm the outcome this assay logged for CC(C)=CCC/C(C)=C/CC/C(C)=C/CC/C(C)=C/CC/C(C)=C/CC/C(C)=C/CC/C(C)=C/CC/C(C)=C/CC/C(C)=C/CO ? inactive

Could you kindly confirm the outcome this assay logged for C=C(NC(=O)C(=C)NC(=O)c1csc(C2=NC3c4csc(n4)C4NC(=O)c5csc(n5)C(C(C)(O)C(C)O)NC(=O)C5CSC(=N5)C(=CC)NC(=O)C(C(C)O)NC(=O)c5csc(n5)C3(CC2)NC(=O)C(C)NC(=O)C(=C)NC(=O)C(C)NC(=O)C(C(C)CC)NC2C=Cc3c(C(C)O)cc(nc3C2O)C(=O)OC4C)n1)C(N)=O (stereo not drawn) ? inactive

Could you kindly confirm the outcome this assay logged for CC(=O)O[C@@H]1CC2C(C)(C)C=CC(=O)[C@]2(C)C2CC[C@@]3(C)[C@H](c4ccoc4)OC(=O)C4OC43[C@@]21C (stereo partly drawn) ? inactive

----------
I'd be grateful if you could share measured normalized growth for these entries.
Test: chemical genetic growth profiling, strain panel (AID 1159580);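 further: tested at 20 µM; growth read once vehicle control cultures reached saturation at 30 °C; 1 = growth at the plate median or of vehicle wells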
Conditions: S. cerevisiae deletion strains, growth OD, locus YPL240C, strain hsp82, stronger effect = lower value
The campaign covered roughly 5,500 compounds. About 2,000 (36%) were called active. Another 18% or so got no clear call; they are omitted. Some of the results follow.
Number, no unit, nothing else.

// field: normalized growth; key: C=CC(C)(O)CC/C=C(\C)CCC=C(C)C (stereo not given) ; value = 0.96

// field: normalized growth; key: COc1ccc(C(Cl)=C(c2ccc(OC)cc2)c2ccc(OC)cc2)cc1 ; value = 0.989

// field: normalized growth; key: CN(C)CCOc1ccc(/C(=C(/CCCl)c2ccccc2)c2ccccc2)cc1 ; value = 0.0664

// field: normalized growth; key: Cc1c(O)c(O)cc2c1CC=C1[C@@]2(C)CC[C@@]2(C)C3C[C@](C)(C(=O)O)CC[C@]3(C)CC[C@]12C (stereo not given in full) ; value = 0.417

// field: normalized growth; key: COc1ccccc1OCCNCC(O)COc1cccc2[nH]c3ccccc3c12 (stereo not given) ; value = 1.01

----------
Assay: chemical genetic growth profiling, strain panel (AID 1159580);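 further: tested at 20 µM; growth read once vehicle control cultures reached saturation at 30 °C; 1 = growth at the plate median or of vehicle wells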
Details: S. cerevisiae deletion strains, growth OD, locus YPR106W, strain ISR1, stronger effect = lower value
Screen size: about 5,500 compounds; about 2,000 (36%) were called active. About 18% were inconclusive and are not listed. Some of the results follow.
experimentalEndpoint: normalized growth
Number, no unit, nothing else.

// field: normalized growth; key: CC(C)c1ccc(NC(=S)NC(=O)c2ccccc2)cc1 ; value = 0.958

// field: normalized growth; key: CC(=O)c1sc(SCCS(=O)(=O)c2ccc(C)cc2)c2c1CC(C)(C)CC2=O ; value = 0.978

// field: normalized growth; key: O=C1CSC(c2cccnc2)N1c1ccc(Cl)cc1Cl (stereo not given) ; value = 1.01

// field: normalized growth; key: O=C(c1ccc2ccccc2c1)N1CCN(c2ccnc3cc(Cl)ccc23)CC1 ; value = 0.999

// field: normalized growth; key: O=C(NC(=S)Nc1cccc(C(F)(F)F)c1)c1ccc2nonc2c1 ; value = 0.973

// field: normalized growth; key: FC(F)(F)c1cccc(NNC(=S)Nc2ccccc2)c1 ; value = 1.01

// field: normalized growth; key: O=[N+]([O-])/C=C/c1ccc(F)cc1 ; value = 0.0871

// field: normalized growth; key: Cc1cc(Cl)ccc1NC(=S)NNC(=S)Nc1ccc(F)cc1 ; value = 0.971

// field: normalized growth; key: N#CCC(=O)NNC(=S)Nc1ccc(Cl)c(Cl)c1 ; value = 0.975

// field: normalized growth; key: CCOC(=O)/C(=N/Nc1c(Cl)cccc1Cl)c1csc(N)n1 ; value = 0.966

// field: normalized growth; key: CCOc1ccc(/C=C(\C)[N+](=O)[O-])cc1OC ; value = 0.972

// field: normalized growth; key: O=C(Nc1ccc(C(F)(F)F)cc1)N1CCN(c2ccnc3cc(Cl)ccc23)CC1 ; value = 0.986

// field: normalized growth; key: S=C(N/N=C\c1ccc(Cl)cc1)N/N=C\c1ccc(Cl)cc1 ; value = 0.972

// field: normalized growth; key: CC(=O)Nc1ccc([N+](=O)[O-])cc1[N+](=O)[O-] ; value = 0.926

// field: normalized growth; key: COc1ccc(C(=O)CSC2=NCCc3ccccc32)cc1 ; value = 0.986

// field: normalized growth; key: Fc1cccc(F)c1NC(=S)Nc1cc(C(F)(F)F)cc(C(F)(F)F)c1 ; value = 0.981

// field: normalized growth; key: Cc1ccc(S(=O)(=O)CCSC2=CC(=O)CC(C)(C)S2)cc1 ; value = 1.01

// field: normalized growth; key: Cc1c2c(=O)[nH]ncc2c(-c2ccccc2)n1-c1ccc([N+](=O)[O-])cc1 ; value = 1.01

// field: normalized growth; key: C/C(=C\c1ccc2c(c1)OCO2)[N+](=O)[O-] ; value = 0.0862

// field: normalized growth; key: Cc1cccc(Cl)c1/C=N\NC(N)=S ; value = 0.927
